Measured melting point values are reported for all entries that follow.
Measure Name: melting point

{"Molecule": "Cn1nc(-c2nc(-n3cccc3)c(N)nc2-c2ccccc2)ccc1=O", "Result": "202 to 205 °C"}
{"Molecule": "FC(F)(F)Oc1ccc(-c2coc3ccc(-c4nnc(N5CCNCC5)o4)cc23)cc1", "Result": "138 to 140 °C"}
{"Molecule": "COC(=O)C1=C(C)NC(CC(=O)N2CCN(C3Cc4ccccc4C3)CC2)=C(C(=O)OC)C1c1c(Cl)cccc1Cl (centres undefined)", "Result": "190 to 200 °C"}
{"Molecule": "CC(=NNC(=S)N1CC2CCC(CC2)C1)c1ccccn1", "Result": "156 °C"}
{"Molecule": "CCN(CC)CCN(CCN1CCCCC1)c1ccc(-c2nc3cc(Cl)c(Cl)cc3[nH]2)cc1", "Result": "160 to 163 °C"}
{"Molecule": "CC(C)(C)c1cc(C(=S)SC(C)(C)c2ccccc2)cc(C(C)(C)C)c1O", "Result": "100 to 104 °C"}
{"Molecule": "CC(C)Cn1c(C#N)c(-c2ccccc2)c2cccnc2c1=O", "Result": "221 to 222 °C"}
{"Molecule": "CCN1CCN(c2cc3ccccc3c(=O)[nH]2)C[C@@H]1CO", "Result": "171 to 173 °C"}
{"Molecule": "CCOC(=O)C(C)(C)Oc1ccc2c(-c3ccc(Cl)cc3)noc2c1", "Result": "70 °C"}
{"Molecule": "COc1cc(OC)c([N+](=O)[O-])c(C(=O)NC2CCN(C(c3ccccc3)c3ccccc3)CC2)c1", "Result": "148 to 150 °C"}
{"Molecule": "COc1cccc(-c2cccc3c2CCn2cc(-c4ccccc4)nc2C3OC2CCN(C)CC2)c1 (centres undefined)", "Result": "93 °C"}
{"Molecule": "CCOC(=O)COc1ccccc1C(O)(CC)c1cccc(Cl)c1 (centres undefined)", "Result": "83 to 84 °C"}
{"Molecule": "O=C1c2ccccc2C(=O)c2sc(Nc3ccccc3)nc21", "Result": "> 260 °C"}
{"Molecule": "c1ccc(C(OC2CCN(CCCNc3ccc4ncnn4n3)CC2)c2ccccc2)cc1", "Result": "136 to 138 °C"}
